Below, each entry is listed with its recorded Cont Increasing rate (%).
- Test system: anesthetized dog
- protocol: anesthetized dog, cardiac contractility and cardiac output
- Type: in vivo
- test_parameters: Dosage 30 µg/kg i.v., contractile force of the right cardiac ventricle muscle
- Procedure: 3) Method of using anesthetized dog Male or female mongrel dogs weighing 8 - 15 kg were used. The dogs were anesthetized with sodium pentobarbital at the dose of 30 mg/kg (intravenous injection) and then applied with artificial respiration. […] A polyethylene cannula was inserted into the left cardiac ventricle to measure the intraventricular pressure, thereby the variation rate of the intraventricular pressure of the left cardiac ventricle (dp/dt) was electrically determined. […]
measurement_kind: Cont Increasing rate (%)

1. COc1ccc(CN2CCN(C(=O)COc3ccc(C4=NNC(=O)CC4)cc3)CC2)cc1 [Compound of Example 3]
12.2
2. COc1ccc(N2CCN(C(=O)C(C)Oc3ccc(C4=NNC(=O)CC4)cc3OC)CC2)cc1 (stereo not shown) [Compound of Example 4]
3.6
3. COc1ccc(CN2CCN(C(=O)COc3ccc(C4=NNC(=O)CC4)cc3)CC2)c(OC)c1OC [Compound of Example 2]
10.1
4. COc1cc(C2=NNC(=O)CC2)ccc1OCC(=O)N1CCN(Cc2ccc(OC)c(OC)c2OC)CC1 [Compound of Example 1]
7.9
